The reported numbers originate from BindingDB's records for doi:10.1016/j.ejmech.2018.01.053.

test: Inhibition of BRAF V600E mutant in human A375 cells assessed as reduction in cell proliferation incubated for 96 hrs by MTT assay
parameter-measured: IC50 (nM)

[P] CC(C)n1nc(C#Cc2cccc(NC(=O)c3cccc(C(F)(F)F)c3)c2)c2c(N)ncnc21
[Q] Cc1ccc2cc(-c3cccc(C(F)(F)F)c3)ncc2c1C#Cc1nn(C(C)C)c2ncnc(N)c12
Task item: Record comparison, field IC50: mark the lower of P and Q . Which one? Tell me its label.
Reply: P
(P: 97 nM, Q: 2300 nM)

----------
assay: Inhibition of BCR-ABL (unknown origin) expressed in mouse BA/F3 cells assessed as reduction in cell proliferation incubated for 48 hrs by MTT assay
pIC50: −log10 of the molar value.
parameter-measured: pIC50

Completed entries (count: 2):
| smiles-entry | pIC50 |
| --- | --- |
| CC(C)n1nc(C#Cc2cccc3cc(-c4cccc(C(F)(F)F)c4)ncc23)c2c(N)ncnc21 | 6.03 |
| Cc1ccc2cc(-c3cccc(C(F)(F)F)c3)ncc2c1C#Cc1nn(C(C)C)c2ncnc(N)c12 | 6.36 |

[P] CC(C)n1nc(C#Cc2cccc3cc(-c4ccc(CN5CCN(C)CC5)cc4)ncc23)c2c(N)ncnc21
[Q] CCn1nc(C#Cc2cccc3cc(-c4cccc(C(F)(F)F)c4)ncc23)c2c(N)ncnc21
Task item: Lab notebook, comparison: P versus Q , higher pIC50 goes to which? Which one? Tell me its label.
Reply: P
(P: 6.45, Q: 5.96)
